Cited source: patent US6504058B1

system: Pyricularia oryzae; type: in vivo, Pyricularia oryzae (on rice seedlings); settings: 200 ppm test suspension sprayed to run-off (equivalent to 500 g/ha) on rice seedlings; 100 = 100% disease control, 0 = no control; # = significant activity
measuredQuantity: Test C disease control rating (rice blast)

In [3]: df
Out[3]:
                                   molecule  experimentalvalue
0  CC(COc1cc(Cl)ccc1C#N)NC(=O)C1(C)CC(C)(Cl)C1 (centres unmarked) [compound 45]              99# %
1  CC(NC(=O)C1(C)CC(C)(Cl)C1)c1ccc(Br)cc1 (centres unmarked) [compound 13]              94# %
2  CC(COc1cc(F)ccc1F)NC(=O)C1(C(F)(F)F)CC(C)(Cl)C1 (centres unmarked) [compound 27]              99# %

Prompt: I am curious: what Test C disease control rating (rice blast) value has been reported for CC(NC(=O)C1CC(C)(Cl)C1)c1ccc(Br)cc1 (centres unmarked) [compound 11] ?
Completion: 53%

Prompt: I am curious: what Test C disease control rating (rice blast) value has been reported for CC(NC(=O)C1(C)CC(C)(Cl)C1)c1ccc(Cl)cc1Cl (centres unmarked) [compound 72] ?
Completion: 99# %

Prompt: What value of Test C disease control rating (rice blast) has been recorded for this entry: CC(COc1cc(F)ccc1Cl)NC(=O)C1(C)CC(C)(Cl)C1 (centres unmarked) [compound 50]
Completion: 94# %

Prompt: Bench note: what Test C disease control rating (rice blast) did CC(COc1cc(F)ccc1C#N)NC(=O)C1(C)CC(C)(Cl)C1 (centres unmarked) [compound 44] show?
Completion: 94# %
